// data source = PubChem BioAssay (NCI)

Assignment: determine reported TGI for the given molecules.
# Test system: OVCAR-5 ovarian
# protocol.notes: NCI tumour cell line growth inhibition, 48 h

## Input Record request: TGI value, item S=c1[nH]nc(CNc2ccc(-c3n[nH]c(=S)n3-c3ccc(Cl)cc3)cc2)n1-c1ccc(Cl)cc1
## Output 46.4 µM

## Input // query: CCOC(=O)c1nc2ccc(C(F)(F)F)cc2nc1NCc1ccc(OC)cc1
## Output > 100 µM

## Input Do the same for O=c1c2c(=NCCN3CCCC3)cc3c(=O)n(CCCN4CCOCC4)c(=O)c4c(-c5ccc(CN6CCCC6)cc5)cc(c(O)n1CCCN1CCOCC1)c2c4-3 please
## Output 0.724 µM

## Input Same question for CN(C)C=Nc1ccn(CCO)c(=O)n1 please.
## Output > 100 µM

## Input Same for NC(Cc1ccc(OCc2ccccc2)cn1)C(=O)O (stereo not given)
## Output > 100 µM

## Input Item: O=P12N(CCN1c1ccccc1)CCN2c1ccccc1
## Output > 100 µM

## Input Okay, and COc1ccc(NC(=O)C(=O)c2c(O)c3ccc(O)cc3oc2=O)c([N+](=O)[O-])c1 ?
## Output > 100 µM

## Input Moving on to COC(=O)C1CCC(=O)N1CN(C(C)=O)c1ccccc1Cl (stereo not given)
## Output > 100 µM

## Input Field entry: COc1ccc2c(c1)/C(=C\c1c(-c3cc(OC)ccc3OC)nc3sc(C)cn13)C(=O)N2C
## Output > 100 µM

## Input Try this molecule too: Cc1ccc(S(=O)(=O)OCCn2cnc3nc(NC(=O)c4ccccc4)[nH]c(=O)c32)cc1
## Output > 100 µM
